measurement-target: KRas G12C (Homo sapiens, UniProt P01116, C118S/C51S/C80L/G12C)
Construct: GDP-loaded K-Ras (1-169) G12C, C51S, C80L, C118S
test-details: KRas G12C Modification Assay (LCMS detection of covalent adduct)
Format: binding
measurement-conditions: 5 μM concentration for 3 hours; 5 µM
molecules and their reported POC (normalized percent of control, covalent modification of KRas G12C)

- molecule: "C=CC(=O)N1CC(CN2C(=O)COc3cc(-c4c(C)ccc5[nH]ncc45)c(Cl)cc32)C1 (single isomer, unassigned) [Example 10]"
  obs-value: "53% of control"
- molecule: "C=CC(=O)N1CC(CN2C(=O)[C@H](CCN(C)C)Oc3cc(-c4c(C)ccc5[nH]ncc45)c(Cl)cc32)C1 (single isomer, unassigned) [Example 36]"
  obs-value: "27% of control"
- molecule: "C=CC(=O)N1CC(CN2C(=O)COc3cc(-c4c(C)ccc5[nH]ncc45)c(Cl)cc32)C1 (single isomer, unassigned) [Example 11]"
  obs-value: "96% of control"

Recorded POC (normalized percent of control, covalent modification of KRas G12C) (molecule C=CC(=O)N1CC(CN2C(=O)[C@H](CCN(C)C)Oc3cc(-c4c(C)ccc5[nH]ncc45)c(Cl)cc32)C1 (single isomer, unassigned) [Example 35] ): 86% of control

* * *

measurement-target: KRas G12C (Homo sapiens, UniProt P01116, C118S/C51S/C80L/G12C)
Construct: GDP-loaded K-Ras (1-169) G12C, C51S, C80L, C118S
test-details: KRas G12C Modification Assay (LCMS detection of covalent adduct)
Type: binding
measurement-conditions: 5 μM concentration for 3 hours
Protocol: This Example illustrates that exemplary compounds of the present invention covalently bind to KRas G12C using a LCMS assay to detect a covalent adduct of the exemplary compound and KRAS G12C. […] Final data analysis was a multistep process in the Spotfire® data analysis software package. Briefly, each protein mass was calculated as a percent of the total signal of that sample, that percentage was normalized to the percentage of signal of the protein in the absence of reactive compounds. […]
compounds and their reported POC (normalized percent of control, covalent modification of KRas G12C)

As a guide, the following entries are already answered.
- compound: "C=CC(=O)N1CC(CN2C(=O)C(C3CCN(C)CC3)Oc3cc(-c4cc(O)cc5ccccc45)c(Cl)cc32)C1 (stereo not shown) [Example 3]"
  obs-value: "91% of control"
- compound: "C=CC(=O)N1CC(CN2C(=O)COc3cc(-c4cc(O)cc5ccccc45)c(C)cc32)C1 [Example 19]"
  obs-value: "99% of control"
- compound: "C=CC(=O)N1CC(CN2C(=O)C(CN3CC[C@H](OC)C3)Oc3cc(-c4cc(O)cc5ccccc45)c(Cl)cc32)C1 (stereo partly shown) [Example 30]"
  obs-value: "93% of control"

Moving on to the next compound.
Recorded POC (normalized percent of control, covalent modification of KRas G12C) (compound C=CC(=O)N1CC(CN2C(=O)COc3cc(-c4cc(O)ccc4OC(F)(F)F)c(Cl)cc32)C1 [Example 7] ): 96% of control

* * *

measurement-target: KRas G12C (Homo sapiens, UniProt P01116, G12C)
Construct: NCI-11358 cells (ATCC CRL-5807) express KRas G12C
test-details: Cellular inhibition of KRas G12C measured by Phospho-ERK in NCI-11358 cells
measurement-conditions: NCI-11358 cells (ATCC CRL-5807), 3 hours; read-out: Inhibition (IC50, pERK (Thr202/Tyr204) signal normalized with GAPDH)
molecules and their reported IC50

- molecule: "C=CC(=O)N1CC(CN2C(=O)[C@H](CCN(C)C)Oc3cc(-c4c(C)ccc5[nH]ncc45)c(Cl)cc32)C1 (single isomer, unassigned) [Example 35]"
  observation-type: "IC50"
  obs-value: "≤ 1000 nM"
- molecule: "C=CC(=O)N1CC(F)(CN2C(=O)COc3cc(-c4cc(O)cc5ccccc45)c(Cl)cc32)C1"
  observation-type: "IC50"
  obs-value: "≤ 1000 nM"
- molecule: "C=CC(=O)N1CC(CN2C(=O)COc3cc(-c4cc(O)cc5ccccc45)c(C)cc32)C1"
  observation-type: "IC50"
  obs-value: "> 1000 nM"

Recorded IC50 (molecule C=CC(=O)N1CC(CN2C(=O)C(CN3CCC(N(C)C)CC3)Oc3cc(-c4cc(O)cc5ccccc45)c(Cl)cc32)C1 (centres unmarked) ): ≤ 1000 nM

Recorded IC50 (molecule "C=CC(=O)N1CC(CN2C(=O)COc3cc(-c4cccc5ccccc45)c(Cl)cc32)C1" ): > 1000 nM

Recorded IC50 (molecule "C=CC(=O)N1CC(C)(CN2C(=O)COc3cc(-c4cc(O)cc5ccccc45)c(Cl)cc32)C1" ): > 1000 nM

Recorded IC50 (molecule C=CC(=O)N1CC(CN2C(=O)COc3cc(-c4c(C)ccc5[nH]ncc45)c(Cl)cc32)C1 (single isomer, unassigned) [Example 10] ): > 1000 nM

Recorded IC50 (molecule "C=CC(=O)N1CC(CN2C(=O)COc3cc(-c4cc(O)cc5ccccc45)c(C#N)cc32)C1" ): > 1000 nM
